target: recombinant PKR1 (Homo sapiens (Human))
experiment-description: Aequorin-based luminescent Ca2+ mobilization assay, antagonist mode, PKR1
condition-context: CHO cells stably expressing aequorin and recombinant PKR1; challenge with recombinant PK2; Ki converted from IC50 by IC50/(1+[PK2]/EC50PK2)
reported-property: Ki (nM)

INSERT INTO measurements (item_smiles, target, uom, measured) VALUES
  ('COc1ccccc1CN1CCO[C@@H](C(=O)N(Cc2cc(Cl)c3c(c2)OCCCO3)CC(C)C)C1', 'recombinant PKR1 (Homo sapiens (Human))', 'nM', 1.49);

I. COc1cc(F)ccc1CN1CC[C@@H](C(=O)N(Cc2cc(Cl)c3c(c2)OCCCO3)CC(C)C)C1
II. CC(C)CN(Cc1cc(Cl)c2c(c1)OCCCO2)C(=O)[C@@H]1CCN(Cc2cccc3nc[nH]c23)C1
IN: I would appreciate it if you could say which entry, I or II , has the lower Ki value. Mark your answer with the label of the selected entry.
OUT: II

---

target: recombinant PKR1 (Homo sapiens (Human), UniProt Q8TCW9)
Sequence (Q8TCW9 whole entry): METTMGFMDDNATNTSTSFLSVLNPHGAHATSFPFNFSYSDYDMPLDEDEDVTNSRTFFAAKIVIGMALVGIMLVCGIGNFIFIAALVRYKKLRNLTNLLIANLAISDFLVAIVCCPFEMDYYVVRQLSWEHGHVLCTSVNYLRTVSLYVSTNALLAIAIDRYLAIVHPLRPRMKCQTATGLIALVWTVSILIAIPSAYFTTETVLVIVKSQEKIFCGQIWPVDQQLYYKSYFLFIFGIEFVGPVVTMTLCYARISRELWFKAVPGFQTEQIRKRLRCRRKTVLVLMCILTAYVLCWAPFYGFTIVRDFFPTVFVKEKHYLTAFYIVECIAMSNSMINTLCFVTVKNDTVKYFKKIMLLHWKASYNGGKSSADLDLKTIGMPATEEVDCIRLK
experiment-description: Aequorin-based luminescent Ca2+ mobilization assay, antagonist mode, PKR1
condition-context: CHO cells stably expressing aequorin and recombinant PKR1; challenge with recombinant PK2; Ki converted from IC50 by IC50/(1+[PK2]/EC50PK2)
reported-property: Ki (nM)

Please review the following examples before continuing.
INSERT INTO measurements (compound, measured) VALUES
  ('COc1ccc(F)c(CN2CCO[C@@H](C(=O)N(Cc3cc(Cl)c4c(c3)OCCCO4)CC(C)C)C2)c1', 10),
  ('COc1cc(CN2CCC[C@@H](C(=O)N(Cc3cc(Cl)c4c(c3)OCCCO4)CC(C)C)C2)c(F)cc1F', 13.8),
  ('CC(C)CN(Cc1cc(Cl)c2c(c1)OCCCO2)C(=O)C(C)CNCc1cccc2nc[nH]c12 (racemic)', 5.6),
  ('CC(C)CN(Cc1cc(Cl)c2c(c1)OCCCO2)C(=O)[C@@H]1CCN(Cc2cc(F)cc3nc[nH]c23)C1', 71.3),
  ('CC(C)CN(Cc1cc(Cl)c2c(c1)OCCCO2)C(=O)[C@@H]1CCN(Cc2ccc(F)c(O)c2)C1', 107);

A. CC(C)CN(Cc1cc(Cl)c2c(c1)OCCCO2)C(=O)[C@@H]1CCCN(Cc2cccc3nc[nH]c23)C1
B. COc1cc(CN2CC[C@@H](C(=O)N(Cc3cc(Cl)c4c(c3)OCCCO4)CC(C)C)C2)c(F)cc1F
C. COc1ccc(F)c(CN2CC[C@@H](C(=O)N(Cc3cc(Cl)c4c(c3)OCCCO4)CC(C)C)C2)c1
IN: Order the records by Ki, with each subsequent value no larger than the one before. Would you mind listing the labels in the order asked for?
OUT: C, A, B

---

target: recombinant PKR1 (Homo sapiens (Human), UniProt Q8TCW9)
experiment-description: Aequorin-based luminescent Ca2+ mobilization assay, antagonist mode, PKR1
condition-context: CHO cells stably expressing aequorin and recombinant PKR1; challenge with recombinant PK2; Ki converted from IC50 by IC50/(1+[PK2]/EC50PK2)
Description: An aequorin-based luminescent assay for calcium mobilization was used to measure mobilization of intracellular Ca^2+ (Bullock et al., Mol Pharmacol 65, 582-588, 2004). Chinese hamster ovary (CHO) cells stably expressing photoprotein aequorin and recombinant PKR1 or PKR2 were tested by this method. Briefly, the cells were charged in Opti-MEM™ (Invitrogen) containing 8 μM of coelenterazine cp at 37° C. for 2 hours. […] Luminescence measurements were made using a Berthold luminometer. […]
reported-property: Ki (nM)

INSERT INTO results (compound, uom, measured) VALUES
  ('COc1cccc(CN2CCO[C@@H](C(=O)N(Cc3cc(Cl)c4c(c3)OCCCO4)CC(C)C)C2)c1', 'nM', 2.5),
  ('COc1ccc(F)cc1CN1CCO[C@@H](C(=O)N(Cc2cc(Cl)c3c(c2)OCCCO3)CC(C)C)C1', 'nM', 7.3),
  ('COc1cc(F)ccc1CN1CCO[C@@H](C(=O)N(Cc2cc(Cl)c3c(c2)OCCCO3)CC(C)C)C1', 'nM', 7.3),
  ('COc1c(F)cccc1CN1CC[C@@H](C(=O)N(Cc2cc(Cl)c3c(c2)OCCCO3)CC(C)C)C1', 'nM', 170),
  ('CC(C)CN(Cc1cc(Cl)c2c(c1)OCCCO2)C(=O)C(C)CNCc1ccc(F)c(O)c1 (racemic)', 'nM', 4.4);

1. CC(C)CN(Cc1cc(Cl)c2c(c1)OCCCO2)C(=O)[C@H]1CN(Cc2cc(F)cc3nc[nH]c23)CCO1
2. COc1cc(CN2CCO[C@@H](C(=O)N(Cc3cc(Cl)c4c(c3)OCCCO4)CC(C)C)C2)c(F)cc1F
3. COc1cc(CNCC(C)C(=O)N(Cc2cc(Cl)c3c(c2)OCCCO3)CC(C)C)c(F)cc1F (racemic)
IN: # rank by Ki, ascending (min first) Would you mind listing the labels in the order asked for?
OUT: 2, 1, 3
(2: 4.09 nM, 1: 6.14 nM, 3: 43.5 nM)

---

target: recombinant PKR2 (Homo sapiens (Human), UniProt Q8NFJ6)
Sequence (Q8NFJ6 whole entry): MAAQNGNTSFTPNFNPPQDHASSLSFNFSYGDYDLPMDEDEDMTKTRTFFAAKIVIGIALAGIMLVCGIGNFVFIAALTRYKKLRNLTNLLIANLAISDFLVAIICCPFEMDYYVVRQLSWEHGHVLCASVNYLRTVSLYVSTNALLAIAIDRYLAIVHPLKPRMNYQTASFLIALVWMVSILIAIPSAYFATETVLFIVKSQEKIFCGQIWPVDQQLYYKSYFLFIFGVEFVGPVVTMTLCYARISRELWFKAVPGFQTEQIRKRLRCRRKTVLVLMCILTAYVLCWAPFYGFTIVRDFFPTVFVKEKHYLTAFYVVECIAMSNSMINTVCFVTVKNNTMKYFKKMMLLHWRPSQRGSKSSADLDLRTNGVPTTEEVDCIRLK
experiment-description: Aequorin-based luminescent Ca2+ mobilization assay, antagonist mode, PKR2
condition-context: CHO cells stably expressing aequorin and recombinant PKR2; challenge with recombinant PK2; Ki converted from IC50 by IC50/(1+[PK2]/EC50PK2)
reported-property: Ki (nM)

Please review the following examples before continuing.
INSERT INTO assay_data (molecule, measured) VALUES
  ('COc1cc(CN2CCO[C@@H](C(=O)N(Cc3cc(Cl)c4c(c3)OCCCO4)CC(C)C)C2)ccc1F', 1.9),
  ('CC(C)CN(Cc1cc(Cl)c2c(c1)OCCCO2)C(=O)[C@@H]1CCN(Cc2cccc3nc[nH]c23)C1', 1.7);

1. CC(C)CN(Cc1cc(Cl)c2c(c1)OCCCO2)C(=O)C(C)CNCc1cccc2nc[nH]c12 (racemic)
2. CC(C)CN(Cc1cc(Cl)c2c(c1)OCCCO2)C(=O)[C@@H]1CCCN(Cc2cccc3nc[nH]c23)C1
IN: I would appreciate it if you could say which entry, 1 or 2 , has the lower Ki value. Mark your answer with the label of the selected entry.
OUT: 1
